The reported numbers originate from PubChem BioAssay.

For each of the molecules below, state its z-score.
assay: adipocyte viability effects, profiling panel, cell-based, 3T3-L1 adipocytes, calcein-AM fluorescence, 48 h, basal (AID 1163); settings: 3T3-L1 adipocytes viability, higher = more signal; also: test concentration not given here
Answers are plain numbers.

Molecule	Measured Parameter	Result
COc1cc2c(cc1O)C(C1CC1)N(Cc1sc3ccccc3c1Cl)CC2 (configuration not stated)	z-score	0.0337

Could I get z-score for every one of these entries?
1. COc1ccc(CCNC(=O)[C@@H]2c3ccccc3C(=O)N(Cc3ccccc3Cl)[C@H]2c2ccc(CO)cc2)cc1
2. O=C1C2C=CC(C(O)Cc3ccccc3)N(n3cnnc3)C2C(=O)N1Cc1ccccc1 (configuration not stated)

[0.789, 0.549]

====

molecular target: Albumin (Bos taurus); assay: bovine serum albumin binders on microarray, profiling panel, artefact control for SMM control protein annotation, biochemical, small-molecule microarray, Alexa647 label, 635/667 nm fluorescence (AID 1118); conditions: BSA-A647 binding, fluorescence 635 nm, higher = more signal;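 also: score merges 667 nm emission intensity and signal-to-noise per printed compound spot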
For each of the compounds below, state its composite z-score.
One number for each entry.

Examples from the recorded data:
Chemical Structure	Target Desc	composite z-score
C=CCNC(=O)[C@@H]1[C@H]2C(=O)O[C@H](c3ccccc3)[C@H](c3ccccc3)N2[C@H](c2ccc(OCCO)cc2)[C@@]12C(=O)Nc1ccc(C#CCC(C(=O)OC)C(=O)OC)cc12	Albumin (Bos taurus)	0.64
COCC(=C=CC[C@@H](O)c1cccc(OCCO)c1)C[C@@H](O)c1ccccn1	Albumin (Bos taurus)	0.254
COCCCNC(=O)[C@@]1(C)c2ccccc2C(=O)N(C(C)C)[C@H]1c1ccc(CO)cc1	Albumin (Bos taurus)	-0.106

Could I get composite z-score for every one of these entries?
1. COC(=O)[C@]1(CCC(=O)OC(C)(C)C)N=C(c2ccc(OCCCO)cc2)O[C@@H]1c1ccccc1CN=[N+]=[N-]
2. NCCCCCCNC(=O)[C@@H]1C[C@@H]2C(=O)NCC(=O)N2[C@@H]1c1ccc(O)cc1
3. O=C1C[C@@](C(=O)NCC(F)(F)F)(c2ccc([N+](=O)[O-])cc2)[C@@H](c2ccc(CO)cc2I)N1C1CCCCC1
4. C=CC[C@]1(C(=O)NCCCOC)N=C(c2ccc(OCCCO)cc2)O[C@H]1c1ccccc1CN=[N+]=[N-]

[-0.325, 0.741, 0.365, 0.782]

====

For each of the compounds below, state its composite z-score.
tested on: Human papillomavirus type 1a protein E7 (residues 44-93); experiment: HPV1a E7 fragment binders on microarrays, primary screen, biochemical, small-molecule microarray, residues 44-93, 635 nm fluorescence (AID 1108); details: small-molecule microarray binding, fluorescence 635 nm; higher = more signal;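 also: E7 fragment applied at 1 µg/mL in TBST for 1 h at 4 C; score combines spot fluorescence with its signal to noise ratio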
Give bare numbers.

Compound	Result
[N-]=[N+]=NCc1ccccc1C[C@]1(C(=O)N2CCCCC2)N=C(c2ccc(OCCCO)cc2)O[C@H]1c1ccccc1N=[N+]=[N-]	1.41
C=C(/C(=C/C[C@H](OC(C)=O)c1ccccc1OCCO)c1cnc2ccccc2c1)C(C)C	0.101
Cc1ccc([C@@H]2C[C@@H](Sc3ccccc3)[C@H](C(=O)O)CN2S(=O)(=O)c2ccc(C)cc2)cc1	1.47

Could I get composite z-score for every one of these entries?
1. C=C(COC)C(=O)CC[C@@H](OC(C)=O)c1ccc(CO)o1
2. COC(=O)[C@@]1(Cc2ccc(OC)cc2)[C@H]2c3cc(C(=O)N4CCCC4)n(Cc4ccc(C)c(F)c4F)c3C[C@H]2CN1C(=O)c1ccccc1
3. C=C(CCCC)/C(=C/C[C@H](OC(C)=O)c1ccccc1OCCO)c1cc(C(=O)OC)ccc1OC
4. COc1cc(C(O)C2C=CC3C(=O)NC(=O)C3N2Nc2ccccn2)cc(OC)c1OC (stereo not drawn)
5. C=C[C@H](CO)NS(=O)(=O)c1ccc(Br)cc1

-0.363
1.48
0.0187
1.04
1.05

====

For each of the compounds below, state its z-score.
test: HepG2 cell viability effects, profiling panel, calcein-AM fluorescence, 48 h, basal (AID 1164); conditions: higher = more signal; also: test concentration not given here
One number for each entry.

Examples from the recorded data:
Compound	Measured Parameter	Result
CN1C(=O)C2C=CC(C(O)c3ccco3)N(Nc3ccccc3)C2C1=O (stereo unspecified)	z-score	-0.315
CCCC[C@H]1OB(O)C[C@H]2C1=C(COC)C[C@H]1C(=O)N(C)C(=O)[C@H]12	z-score	-0.653
C=C(COC)/C(=C/C[C@H](OC(C)=O)c1ccc(CO)o1)c1cc(C(=O)OC)ccc1OC	z-score	-0.603
O=C1c2ccccc2[C@](Cc2ccccc2I)(C(=O)NCCN2CCOCC2)[C@H](c2ccc(CO)cc2)N1C1CCCCC1	z-score	1.52
COC(=O)[C@@]1(Cc2ccc(F)cc2)[C@H]2c3cc(C(=O)N(C)C)n(Cc4cc(F)c(F)c(F)c4)c3C[C@H]2CN1C(=O)c1ccccc1	z-score	0.178
COC(=O)C(CC#Cc1ccc2c(c1)[C@]1(C(=O)N2)[C@H](c2ccc(OCCO)cc2)N2[C@H](c3ccccc3)[C@H](c3ccccc3)OC(=O)[C@H]2[C@@H]1C(=O)Nc1nc2ccccc2s1)C(=O)OC	z-score	0.94
COC(=O)[C@@]1(Cc2ccc(F)cc2)[C@H]2c3cc(C(=O)N4CCCC4)n(CCCNc4ncc(C(F)(F)F)cc4Cl)c3C[C@H]2CN1C(=O)c1ccccc1	z-score	0.0224
CC1(C)[C@@H]2CC(C(O)C3C=CC4C(=O)N(c5ccccc5)C(=O)C4N3Nc3ccc([N+](=O)[O-])cc3)=C[C@H]1C2 (stereo partly specified)	z-score	-0.0345
C=C(COC)C(=O)CC[C@@H](OC(C)=O)c1ccc(CO)o1	z-score	0.473
C=C[C@H](CO)NS(=O)(=O)c1ccc(Br)cc1	z-score	1.34

Could I get z-score for every one of these entries?
1. CC#CC(=O)Oc1ccccc1C=CC(=O)OCC
2. O=C(NCCN1CCOCC1)C1N=C(c2ccc(OCCCO)cc2)N(c2ccccc2)O1 (stereo unspecified)
3. COc1ccc(C#Cc2ccc3c(c2)[C@]2(C(=O)N3)[C@H](C(=O)Nc3nc4ccccc4s3)[C@H]3C(=O)O[C@H](c4ccccc4)[C@H](c4ccccc4)N3[C@@H]2c2ccc(O)cc2)cc1
4. CCCCCCc1nc(-c2ccc(OC)nc2)cc2c1[Si](C(C)C)(C(C)C)O[C@H]2c1ccccc1
5. C=CCC(OC(C)=O)[C@@H]1[C@@H](N(Cc2ccc(-c3ccccc3)cc2)C(=O)c2ccc(-c3ccccc3)cc2)c2cc(OCCCO)ccc2N1C(=O)Cc1ccc2ccccc2c1 (stereo partly specified)
6. CCCC[C@@H]1C[C@H]1[C@@H](NC(=O)c1ccccc1)c1ccc(C(=O)OC)cc1

-0.749
0.291
0.949
-1.1
0.325
-0.197

====

biological target: Follistatin (Homo sapiens); assay: follistatin binders on small-molecule microarrays, primary screen, biochemical, small-molecule microarray, 635/667 nm fluorescence (AID 1132); conditions: FST binding, 635 nm fluorescence, higher = more signal
Hi, to clarify the labels: YES covers composite z-score from 0.8 upward, NO covers anything below 0.8.

Past entries and their recorded results:
Compound	Target Desc	Category
O=C(CS)NCCCCCCNC(=O)[C@@H]1C[C@@H]2C(=O)N[C@@H](Cc3ccccc3)C(=O)N2[C@@H]1c1cccc(OCCO)c1	Follistatin (Homo sapiens)	YES
COc1ccc(C#Cc2ccc3c(c2)[C@]2(C(=O)N3)[C@H](C(=O)Nc3nc4ccccc4s3)[C@H]3C(=O)O[C@H](c4ccccc4)[C@H](c4ccccc4)N3[C@@H]2c2ccc(O)cc2)cc1	Follistatin (Homo sapiens)	YES
C=CCOC(=O)[C@H]1[C@@H]2C(=O)O[C@@H](c3ccccc3)[C@@H](c3ccccc3)N2[C@@H](c2ccc(OCCOC(=O)[C@H]3C[C@H]4C(=O)N[C@@H](CCCCN(C)C)C(=O)N4[C@H]3c3ccc(O)cc3)cc2)[C@]12C(=O)Nc1ccc(I)cc12	Follistatin (Homo sapiens)	YES
Cc1ccc(S[C@]2(C(=O)NCCCN(C)C)CC(=O)N(Cc3cc(C(F)(F)F)cc(C(F)(F)F)c3)[C@@H]2c2ccc(CO)cc2)cc1	Follistatin (Homo sapiens)	NO
CC(=O)NCCCC[C@@H]1NC(=O)[C@@H]2C[C@H](C(=O)NCCCCCNC(=O)CS)[C@H](c3cccc(OCCO)c3)N2C1=O	Follistatin (Homo sapiens)	YES
CCCC[C@@H]1C[C@H]1[C@@H](NC(=O)c1cccs1)c1ccc(-c2ccccc2)cc1	Follistatin (Homo sapiens)	NO
O=C(NCCN1CCOCC1)[C@@H]1c2ccccc2C(=O)N(C2CCCCC2)[C@H]1c1ccc(CO)cc1	Follistatin (Homo sapiens)	NO
C=C[C@H](C)[C@@H](OC(=O)Nc1ccc(OC)cc1)c1ccc(O)c2ccccc12	Follistatin (Homo sapiens)	YES
C=C(CCCC)/C(=C/C[C@@H](OC(C)=O)c1ccc(OCCO)cc1)c1cnc2ccccc2c1	Follistatin (Homo sapiens)	YES
COC(=O)[C@@]1(Cc2ccc(OC)cc2)[C@H]2c3cc(C(=O)N(C)C)n(Cc4ccccn4)c3C[C@H]2CN1C(=O)c1ccccc1	Follistatin (Homo sapiens)	NO

Does the compound CCCC[C@@H]1C[C@H]1[C@@H](NC(=O)c1ccco1)c1ccccc1C(F)(F)F have recorded composite z-score that is 0.8 or more?
NO

Does the compound COC(=O)[C@@]1(Cc2ccc(OC)cc2)[C@H]2c3cc(C(=O)N(C)C)n(Cc4ccc(S(C)(=O)=O)cc4)c3C[C@H]2CN1C(=O)c1ccccc1 have recorded composite z-score that is 0.8 or more?
YES
